Items are presented alongside their recorded activity at 100 µM.
# Test system: M. mycetomatis genome strain MM55
# protocol: CLSI M38-A2 based in vitro susceptibility screening (XTT or resazurin), growth at fixed concentration
# Format: cell-based, Madurella mycetomatis
# settings: Madurella mycetomatis, 100 uM, replicate 3; read-out: Percentage survival at 100um, 100 uM A (third replicate column)
State just the number; it will be interpreted in %.

Examples from the recorded data:
• O=C1CCC(N2C(=O)c3ccccc3C2=O)C(=O)N1 (stereo not shown) [MMV002612] = 82.9
• Cc1ncc([N+](=O)[O-])n1CC(O)CN1CCOCC1 (stereo not shown) [MMV1613562] = 104
• O=S(=O)(NCB(O)O)c1ccc(-c2nnn[nH]2)cc1C(F)(F)F [MMV1782411] = 90.2

Lookup: activity at 100 µM / M. mycetomatis genome strain MM55 / C[C@H]1CC[C@]2(NC1)O[C@H]1C[C@H]3[C@@H]4CC[C@H]5C[C@@H](O)CC[C@]5(C)[C@H]4CC[C@]3(C)[C@H]1[C@@H]2C [MMV003069]
84.2

====

# Tested on: M. mycetomatis genome strain MM55
# protocol: CLSI M38-A2 based in vitro susceptibility screening (XTT or resazurin), growth at fixed concentration
# Assay type: cell-based, Madurella mycetomatis
# settings: Madurella mycetomatis, 25 uM, replicate C, M. mycetomatis MM55; read-out: Percentage survival at 25um, 25 uM C
Items are presented alongside their recorded activity at 25 µM.

Examples from the recorded data:
* C[C@H](c1cccc2ccccc12)N(C)Cc1ccccc1 | 3.87%
* C=C(C)n1c(=O)n(Cc2ccccc2C)c2ccccc21 | 66.5%
* OCCCCn1cnc2c(O)nc(NCc3ccc(Cl)c(Cl)c3)nc21 | 72.6%
* O=C(NCc1ccccc1Cl)c1cnc2ccccc2n1 | 65.3%
* CC(C)/N=c1\cc2n(-c3ccc(Cl)cc3)c3ccccc3nc-2cc1Nc1ccc(Cl)cc1 | 67.2%

Value lookup for activity at 25 µM; key = O=C(/C(=C/c1ccc(Cl)cc1Cl)n1ccnc1)c1ccc(Cl)cc1
2.96%

// repeat for C[C@H]1CC[C@@]2(O)C(C)(C)[C@@H]3CC[C@@]2(C)[C@H]1C3 and report
74.3%

// repeat for O=C(Nc1nnc(-c2ccccc2)o1)c1ccc(F)cc1 and report
3.74%

====

# System: M. mycetomatis MM55
# protocol: IC50 determination, 2-fold dilution series 16 to 0.03125 μM
# Type: cell-based, Madurella mycetomatis
# settings: Madurella mycetomatis, MM55, Table 2; M. mycetomatis MM55; read-out: IC50
readoutType: IC50 (nM)
State just the number; it will be interpreted in nM.

Lookup: IC50 / M. mycetomatis MM55 / COC(=O)Nc1nc2c(C)cccc2[nH]1
3220

// repeat for COC(=O)Nc1nc2ccccc2[nH]1 and report
1320

// repeat for COc1cc(C)c2c(Oc3cccc(C(F)(F)F)c3)c(OC)cc(NC(C)CCCN)c2n1 (centres unmarked) [MMV000043, Tafenoquine, reference compound] and report
12800

// repeat for C[C@@H](c1nc(-c2ccc(C#N)cc2)cs1)[C@](O)(Cn1cncn1)c1ccc(F)cc1F and report
10

// repeat for O=C(/C(=C/c1ccc(Cl)cc1Cl)n1ccnc1)c1ccc(Cl)cc1 and report
2810

// repeat for CCCCC(CC)CNC(=N)NC(=N)NCCCCCCNC(=N)NC(=N)NCC(CC)CCCC (centres unmarked) [MMV396785, Alexidine, reference compound] and report
2560

// repeat for Clc1cc(Cl)c2c(c1)CCc1ccccc1C2n1ccnc1 (centres unmarked) [MMV1634492, Eberconazole, reference compound] and report
720

// repeat for COC(=O)Nc1nc2ccc(Sc3ccccc3)cc2[nH]1 and report
2660

====

# Test system: M. mycetomatis genome strain MM55
# protocol: CLSI M38-A2 based in vitro susceptibility screening (XTT or resazurin), growth at fixed concentration
# Assay type: cell-based, Madurella mycetomatis
# settings: Madurella mycetomatis, 100 uM, mean of three, M. mycetomatis MM55; read-out: Percentage survival at 100um, 100 uM mean
The threshold is inclusive: activity at 100 µM of exactly 70% counts as TRUE; values below receive FALSE.

Examples with answers:
* O=C(/C(=C/c1ccc(Cl)cc1Cl)n1ccnc1)c1ccc(Cl)cc1 | FALSE
* Fc1ccc(-n2cc(Cn3c(-c4cccc(F)c4)nc4ccccc43)nn2)cc1 | TRUE
* CO[C@@]1(NC(=O)Cc2cccs2)C(=O)N2C(C(=O)O)=C(COC(N)=O)CS[C@@H]21 | TRUE
* O=C(CCCC(F)(F)F)N1CCC(c2nc(-c3nccs3)no2)CC1 | TRUE
* CSC[C@H]1CN(Cc2c[nH]c3c(N)ncnc23)C[C@@H]1O | TRUE
* CCCC(=O)OCCc1ccccc1 | TRUE
* CC(C)=CCC/C(C)=C/CNCCNC1C2CC3CC(C2)CC1C3 (stereo not drawn) | FALSE

Threshold query (activity at 100 µM >= 70%) on N=C(N)c1ccc(COc2ccc(Cl)cc2)cc1
TRUE

====

# System: M. mycetomatis genome strain MM55
# protocol: CLSI M38-A2 based in vitro susceptibility screening (XTT or resazurin), growth at fixed concentration
# Format: cell-based, Madurella mycetomatis
# settings: 25 μM; selected if >75% (resazurin) or >80% (XTT) fungal growth inhibited
readoutType: Inhibits growth of Madurella mycetomatis at 25 μM

* CCC(C)NCC(O)Cn1c2ccc(Cl)cc2c2cc(Cl)ccc21 (stereo not shown) | inhibit the growth
* COC(=O)Nc1nc2ccc(Sc3ccccc3)cc2[nH]1 | inhibit the growth
* COc1cc(C)c2c(Oc3cccc(C(F)(F)F)c3)c(OC)cc(NC(C)CCCN)c2n1 (stereo not shown) [MMV000043, Tafenoquine, reference compound] | inhibit the growth

====

# Tested on: M. mycetomatis MM55
# protocol: IC50 determination, 2-fold dilution series 16 to 0.03125 μM
# Assay type: cell-based, Madurella mycetomatis
# settings: Table 2; M. mycetomatis MM55; read-out: IC50
pIC50: −log10 of the molar value.
readoutType: pIC50

Value lookup for pIC50; key = N#C/C(=C1/SC[C@@H](c2ccc(Cl)cc2Cl)S1)n1ccnc1 [MMV1782224, Luliconazole, reference compound]
> 7.52

====

# Test system: M. mycetomatis genome strain MM55
# protocol: CLSI M38-A2 based in vitro susceptibility screening (XTT or resazurin), growth at fixed concentration
# Format: cell-based, Madurella mycetomatis
# settings: Madurella mycetomatis, 25 uM, replicate A; read-out: Percentage survival at 25um, 25 um A
readoutType: activity at 25 µM (%)
State just the number; it will be interpreted in %.

Examples from the recorded data:
- CC(C)(C)c1ccc(C(=O)NC(=O)N2CCCc3ccccc32)cc1: 90.3
- Cc1ncc([N+](=O)[O-])n1CC(C)O (stereo not drawn): 140
- CCc1c(OCC2CCC2)c2cc(F)ccc2[nH]c1=O: 59.4
- Nc1nc(-c2ccccc2)nc2c1ncn2[C@@H]1O[C@H](COS(=O)(=O)NC(=O)c2ccccc2O)[C@@H](O)[C@H]1O: 74.7
- CC1CCc2c(N3CCC(O)CC3)c(F)cc3c(=O)c(C(=O)O)cn1c23 (stereo not drawn): 77.6

Value lookup for activity at 25 µM; key = CCc1cc(O)c(Oc2ccc(C(N)=O)cc2F)cc1F
145

// repeat for O=C(c1cc(O)nc2ccccc12)N1CCN(c2ccccc2)CC1 and report
85.3

// repeat for Nc1nc(O)c2ncn(COCCO)c2n1 and report
88.7

// repeat for CCCCc1ccc(C(=O)O)nc1 and report
92.6

// repeat for O=C(Nc1[nH]c(=O)ncc1F)c1ccccc1 and report
82.4

// repeat for O=C1NC(=S)N/C1=C\c1cc(Br)cc(Br)c1O and report
79.8

// repeat for CCc1oc2ccccc2c1C(=O)c1ccc(O)cc1 and report
95.8

====

Items are presented alongside their recorded IC50.
# Tested on: M. mycetomatis MM55
# protocol: IC50 determination, 2-fold dilution series 16 to 0.03125 μM
# Assay type: cell-based, Madurella mycetomatis
# settings: Madurella mycetomatis, MM55; replicate 1; read-out: IC50 1
State just the number; it will be interpreted in µM.

• Cc1ccc(S(=O)(=O)Nc2cccc3cccnc23)cc1 = 18.5

Value lookup for IC50; key = CNCC(=O)OCc1cccnc1N(C)C(=O)OC(C)[n+]1cnn(C[C@](O)(c2cc(F)ccc2F)[C@@H](C)c2nc(-c3ccc(C#N)cc3)cs2)c1 (stereo partly shown) [MMV1634494, Isavuconazonium, reference compound]
0.35

// repeat for Clc1cc(Cl)c2c(c1)CCc1ccccc1C2n1ccnc1 (stereo not shown) [MMV1634492, Eberconazole, reference compound] and report
0.58

// repeat for CCN(CC)CCn1c(=N)n(CC(O)COc2ccc(Cl)cc2Cl)c2ccccc21 (stereo not shown) and report
2.8

// repeat for O[C@@](Cn1cnnn1)(c1ccc(F)cc1F)C(F)(F)c1ccc(-c2ccc(OCC(F)(F)F)cc2)cn1 [MMV1634386, Oteseconazole, reference compound] and report
2.15
